Hey, just so you know, these numbers are from PubChem BioAssay AID179.

For each of the compounds below, state its pIC50.
Test system: CEM cells HIV-1 protection, formazan growth assay
test name: NCI AIDS Antiviral Assay
condition label: measured here: growth of uninfected CEM cells
Numbers only, as −log10 of the molar value.

Please review the following examples before continuing.
>>> df
                                   compound                            assayed_target  quantitative_result
0  COCC(=O)[C@]1(O)Cc2c(O)c3c(c(O)c2[C@@H](OC2CC(N)C(O)C(C)O2)C1)C(=O)c1c(OC)cccc1C3=O (stereo partly specified)  CEM cells HIV-1 protection, formazan growth assay                 7.20
1  COc1nc2c(c(=O)[nH]1)N=C(c1ccc([N+](=O)[O-])cc1)CC(c1ccccc1)N2 (stereo unspecified)  CEM cells HIV-1 protection, formazan growth assay                 4.33

For each of the compounds below, state pIC50.
1. CSC1=C(C#N)C(=O)N(c2ccc(C)cc2)C(=O)C1C#N (stereo unspecified)
2. Cc1ccc2nc(N)[nH]c(=O)c2c1Sc1ccncc1
3. CN(C)C=Nc1ccc2[nH]c3ccccc3c2c1

1: 3.82; 2: 5.87; 3: 3.97

Return reported pIC50; argument: `Cc1ccc(S(=O)(=O)NC(=O)C2S(=O)(=O)OCCOS2(=O)=O)cc1`
4.11

---

Tested on: CEM cells HIV-1 protection, formazan growth assay
test name: NCI AIDS Antiviral Assay
condition label: measured here: growth of uninfected CEM cells
quantity name: pIC50
Give bare numbers, as −log10 of the molar value.

Please review the following examples before continuing.
>>> df
                                   molecule  quantitative_result
0  CC1(CO)CCCC/C1=N\Nc1cc([N+](=O)[O-])cc([N+](=O)[O-])c1 (centres undefined)                 4.72
1  O=C(c1cccc(O)c(=O)c1)C1OC1c1ccccc1 (centres undefined)                 5.55

For each of the molecules below, state pIC50.
1. Cc1nnc(Cc2ccccc2)c2n[nH]c(C)c12
2. BrCc1cccc(C[P+](c2ccccc2)(c2ccccc2)c2ccccc2)c1
3. O=C1C=CC(=O)c2c(O)c3c(c(O)c21)C[C@H](O)[C@H](O)[C@@H]3O
4. COc1ccc(N2C(=O)C3c4[nH]c5c(C)cccc5c4C4CCC(c5ccccc5)CC4C3C2=O)cc1 (centres undefined)
5. CSc1ccc(NC(=O)Nc2cc(C)ccn2)cc1
6. O=C1NC(=O)/C(=C\c2ccccc2)C2=C1CCCC2
7. O=C(c1ccc(Cl)cc1)N(C(=S)OCc1ccccn1)c1ccccc1

1: 3.96; 2: 5.93; 3: 6.41; 4: 4.22; 5: 3.72; 6: 4.81; 7: 4.08

Return reported pIC50; argument: `CC(=O)N1c2ccccc2[C@H]2CCc3c([nH]c4ccccc34)[C@H]21`
4.89

---

For each of the molecules below, state its EC50.
Tested on: CEM cells HIV-1 protection, formazan growth assay
test name: NCI AIDS Antiviral Assay

>>> df
                                   molecule                            assayed_target  quantity_name    result
0  CN(C)CCN1C(=O)C2C3CCC(C)(O3)C2C1=O (stereo unspecified)  CEM cells HIV-1 protection, formazan growth assay           EC50  > 200 µM
1  O=c1c(-c2ccccc2)nc2ccccc2n1CC1CCCN2CCCC[C@H]12 (stereo partly specified)  CEM cells HIV-1 protection, formazan growth assay           EC50  > 200 µM
2  COC(=O)[C@@H]1C[C@@H](OS(=O)(=O)c2ccc(C)cc2)CN1S(=O)(=O)c1ccc(C)cc1  CEM cells HIV-1 protection, formazan growth assay           EC50  > 200 µM

For each of the molecules below, state EC50.
1. CCOC(=O)C1=C(NC)OC/C1=N\NC(=O)c1ccccc1O
2. O=c1[nH]c(Nc2cccc(Br)c2)nc2nc[nH]c12
3. CCCCCCCCCCC[N+]1(Cc2ccccc2)CC2CCN(Cc3ccccc3)CC2C1 (stereo unspecified)

1: > 93.3 µM; 2: > 200 µM; 3: > 2 µM

For each of the molecules below, state EC50.
1. O=C(/C=C/c1ccccc1O)C(c1ccccc1)c1ccccc1
2. COc1ccc2c3c([nH]c2c1)CCN(Cc1ccccc1)C3

["> 12 µM", "> 200 µM"]

For each of the molecules below, state EC50.
1. CC(C(=O)COCc1ccccc1)P1(=O)OC(C)(C)CN1C(C)(C)C (stereo unspecified)
2. Cc1ccc(S(=O)(=O)c2ccsc2NC(=O)c2ccccc2)cc1
3. S=C(c1c[nH]c2ccccc12)N1CCCCC1

> 200 µM
> 100 µM
> 200 µM
